Target entity: T1, PUF4 RNA-binding domain (Saccharomyces cerevisiae, UniProt P25339 537-888)
T1 sequence: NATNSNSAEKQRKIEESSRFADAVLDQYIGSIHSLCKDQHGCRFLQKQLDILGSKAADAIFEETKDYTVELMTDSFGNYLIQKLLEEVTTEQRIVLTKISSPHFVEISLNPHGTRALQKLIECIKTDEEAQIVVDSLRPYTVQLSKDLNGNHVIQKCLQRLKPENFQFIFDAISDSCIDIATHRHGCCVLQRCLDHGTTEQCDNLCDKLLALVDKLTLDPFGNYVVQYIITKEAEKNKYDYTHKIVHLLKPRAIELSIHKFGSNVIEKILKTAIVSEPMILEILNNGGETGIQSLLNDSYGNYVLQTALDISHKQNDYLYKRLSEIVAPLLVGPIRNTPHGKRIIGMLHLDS
Assay comment: Mg; RNA-MaP; 20 mM Na-HEPES pH 7.4, 30 mM KOAc, 0.75 mM MgCl2, 0.1% Tween-20, 5% glycerol, 0.1 mg/mL BSA, 2 mM DTT; 25 C; 0.0125-409.6 nM protein
Experimental parameters: tags: N-His6-TEV cleaved; C-SNAP kept, Cy3B-labelled; label: tethered on chip by stalled RNA polymerase
// reported log10 of Kd for each item listed
Hey, these are logged values: log10 of Kd, nM being the unit before logging.

Solved entries:
| Binder | log10 of Kd |
| --- | --- |
| Ie_S4_P4E.1_K4.1_C4.1_H4.1_A4.1_[+6TTT]_F4.1_T4.1 (ssRNA) RNA: UUUGACAACUGAUCGUUCUUUCUUGUAUAUUUUUAUUCUUUCUCGAUCAGUUGUCUUU | 0.69 |
| Ic_S4_P4E.1_K4.1_C4.1_H4.1_A4.1_[T5C]_[A6T]_[T7C]_F4.1_[A9C]_T4.1 (ssRNA) RNA: UUUGACAACUGAUCGUUCUUUCUUGUACUCUCUUCUUUCUCGAUCAGUUGUCUUU | 1.37 |
| Ie_S4_P5E.1_K5.1_C5.1_H5.1_A5.1_[+5CTCTC]_F5.1_T5.1 (ssRNA) RNA: UUUGACAACUGAUCGUUCUUUCUUGUAUCUCUCUAUUAUUCUUUCUCGAUCAGUUGUCUUU | 1.12 |
| Id_ii_S2_P3E.4_K3.3_C3.2_[C-2A]_[T-1C]_H3.3_A3.1_F3.1_T3.2_[A10T] (ssRNA) RNA: UUUGAUUAAUAUGAUAUCGUUCUUUCUACACACUAUAUUUUCUUUCUCGAUAUCAUAUUAAUCUUU | 2.94 |
| Id_i_S2_P3E.5_K3.1_C3.3_[T-3C]_[C-2T]_[T-1G]_H3.1_A3.1_F3.1_T3.2 (ssRNA) RNA: UUUGAUUAAUAUGAUAUCGUUCUUUCUCUGUGUAUAUAUAUUCUUUCUCGAUAUCAUAUUAAUCUUU | 0.09 |
| Ib_S2_P4E.1_K4.1_C4.1_H4.1_[G2T]_[T3A]_A4.1_F4.1_T4.1 (ssRNA) RNA: UUUGAUUAAUAUGAUAUCGUUCUUUCUUUAAUAUUAUUCUUUCUCGAUAUCAUAUUAAUCUUU | 3.33 |

IN: Report log10 of Kd for UCUCUUUGUAUGACCAUCUCUU (ssRNA) [Ic_S1_P5E.1_K5.1_C5.1_H5.1_A5.1_[T6G]_F5.1_[T8C]_[T9C]_T5.1] please.
OUT: 3.05

IN: Report log10 of Kd for Ib_S4_P3E.1_K3.1_C3.1_H3.1_[A4C]_A3.1_[A6T]_F3.1_T3.1 (ssRNA) RNA: UUUGACAACUGAUCGUUCUUUCUUGUCUUUAUUCUUUCUCGAUCAGUUGUCUUU please.
OUT: 3.06

IN: Report log10 of Kd for Ib_S2_P4E.1_K4.1_C4.1_H4.1_[T3C]_A4.1_F4.1_[A9C]_T4.1 (ssRNA) RNA: UUUGAUUAAUAUGAUAUCGUUCUUUCUUGCAUAUUCUUCUUUCUCGAUAUCAUAUUAAUCUUU please.
OUT: 3.03
